study-system: T1, monkey CDH6 protein (cynoCDH6 ECD-his) (monkey (cyno), UniProt A0A2K5TW62 19-615)
T1 construct: range 19-615; also called Cyno CDH6-his; not shown: his tag
T1 sequence: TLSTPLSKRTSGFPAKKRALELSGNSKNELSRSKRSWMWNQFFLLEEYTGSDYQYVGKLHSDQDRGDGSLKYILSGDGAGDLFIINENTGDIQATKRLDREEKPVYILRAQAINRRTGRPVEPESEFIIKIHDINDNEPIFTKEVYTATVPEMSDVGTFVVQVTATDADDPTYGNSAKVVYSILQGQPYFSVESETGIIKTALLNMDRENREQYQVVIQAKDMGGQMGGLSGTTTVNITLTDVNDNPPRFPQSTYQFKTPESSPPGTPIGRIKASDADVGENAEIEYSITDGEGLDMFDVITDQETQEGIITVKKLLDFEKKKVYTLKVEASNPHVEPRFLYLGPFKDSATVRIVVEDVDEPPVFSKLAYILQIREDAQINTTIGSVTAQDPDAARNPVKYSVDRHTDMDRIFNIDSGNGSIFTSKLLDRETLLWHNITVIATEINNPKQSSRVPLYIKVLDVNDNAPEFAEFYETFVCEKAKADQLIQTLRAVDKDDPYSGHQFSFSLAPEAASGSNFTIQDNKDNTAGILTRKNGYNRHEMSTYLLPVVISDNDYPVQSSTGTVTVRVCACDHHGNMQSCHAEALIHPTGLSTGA
protocol-notes: ELISA, coated antigen
Method: Human CDH6 protein (hCDH6 ECD-his, conventionally synthesized), monkey CDH6 protein (cynoCDH6 ECD-his, conventionally synthesized; the cynoCDH6 ECD sequence was derived from Uniprot #A0A2K5TW62 (19-615)), and murine CDH6 protein (mCDH6 ECD-his, conventionally synthesized; the mCDH6 ECD sequence was derived from Uniprot #P97326 (19-615)) were diluted with PBS to a final concentration of 1 μg/mL, and added to a 96-well ELISA plate at 100 μL/well. The plate was incubated at 4° C. overnight. […]
Known pEC50 of a selection of binders
By convention, pEC50 is the negative base-10 log of a molar concentration.

binder: DS-H01L02 (antibody, human IgG1, kappa, V domains shown, Positive control, variable regions from WO2018212136A1; also called positive control anti-human CDH6 antibody) VH: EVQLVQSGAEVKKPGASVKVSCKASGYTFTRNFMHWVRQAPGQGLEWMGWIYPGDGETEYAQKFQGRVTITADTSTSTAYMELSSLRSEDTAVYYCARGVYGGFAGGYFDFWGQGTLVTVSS VL: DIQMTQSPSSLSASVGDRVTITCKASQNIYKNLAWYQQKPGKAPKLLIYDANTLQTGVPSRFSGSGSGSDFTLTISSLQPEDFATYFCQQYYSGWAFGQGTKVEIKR
measure: pEC50
value-observed: 9.99

binder: CHI-CDH6-3 (antibody, human IgG1, kappa, V domains shown, also called CH1-CDH6-3; chimeric antibody of murine CDH6-3) VH: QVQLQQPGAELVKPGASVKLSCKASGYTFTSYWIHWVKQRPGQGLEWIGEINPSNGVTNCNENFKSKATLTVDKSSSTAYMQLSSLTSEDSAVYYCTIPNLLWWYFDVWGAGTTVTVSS VL: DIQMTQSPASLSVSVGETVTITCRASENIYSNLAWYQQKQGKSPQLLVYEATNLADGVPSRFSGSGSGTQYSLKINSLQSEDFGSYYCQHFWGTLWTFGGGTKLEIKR
measure: pEC50
value-observed: 10.39

Let's switch to this binder now.
Provide measured pEC50 value, entry: CHI-CDH6-12 (antibody, human IgG1, kappa, V domains shown, also called CH1-CDH6-12; chimeric antibody of murine CDH6-12) VH: EVNLVESGGGLVQPGDSLTLSCSASGFTFTDYYMSWVRQFPGKALEWLALIRNKANSYTTEYSASVKGRFTISRDNSQSILYLQMNALRAEDSATYYCARDSYYSHDGFAYWGQGTLVTVSA VL: DIVLTQSPASLAVSLGQRATISCRASKSVSTSSYTYMHWYQQKPGQPPKLLIKFASYLESGVPARFSGSGSGTDFTLNIHPVEEEDAATYYCQHSREFPFTFGTGTKLEIKR
10.36
